Condition details: in transcutol, 298.2 K
Property name: solubility (mole fraction)

>>> df
                item_smiles               property_name  assay_result
0  CC1=CC(=O)C(C(C)C)=CC1=O  solubility (mole fraction)        0.0664

====

Condition details: in water, 303.2 K
Property name: solubility (mole fraction)

                item_smiles  assay_result
0  CC1=CC(=O)C(C(C)C)=CC1=O      9.39e-05

====

Condition details: in ethanol, 298.2 K
Property name: solubility (mole fraction)

>>> df
                item_smiles  assay_result
0  CC1=CC(=O)C(C(C)C)=CC1=O        0.0179

====

Condition details: in water, 298.2 K
Property name: solubility (mole fraction)

>>> print(df.to_string())
                item_smiles  assay_result
0  CC1=CC(=O)C(C(C)C)=CC1=O      8.27e-05

====

Condition details: in water, 308.2 K
Property name: solubility (mole fraction)

In [3]: df
Out[3]:
                item_smiles  assay_result
0  CC1=CC(=O)C(C(C)C)=CC1=O      0.000108

====

Condition details: in n-butanol, 318.2 K
Property name: solubility (mole fraction)

                item_smiles               property_name  assay_result
0  CC1=CC(=O)C(C(C)C)=CC1=O  solubility (mole fraction)        0.0933

====

Condition details: in transcutol, 303.2 K
Property name: solubility (mole fraction)

>>> print(df.to_string())
                item_smiles               property_name  assay_result
0  CC1=CC(=O)C(C(C)C)=CC1=O  solubility (mole fraction)        0.0755

====

Condition details: in propylene glycol, 298.2 K
Property name: solubility (mole fraction)

                item_smiles               property_name  assay_result
0  CC1=CC(=O)C(C(C)C)=CC1=O  solubility (mole fraction)       0.00553

====

Condition details: in transcutol, 318.2 K
Property name: solubility (mole fraction)

                item_smiles  assay_result
0  CC1=CC(=O)C(C(C)C)=CC1=O         0.103

====

Condition details: in sec-butanol, 318.2 K
Property name: solubility (mole fraction)

In [3]: df
Out[3]:
                item_smiles               property_name  assay_result
0  CC1=CC(=O)C(C(C)C)=CC1=O  solubility (mole fraction)        0.0973

====

Condition details: in PEG-400, 308.2 K
Property name: solubility (mole fraction)

>>> df
                item_smiles  assay_result
0  CC1=CC(=O)C(C(C)C)=CC1=O        0.0508

====

Condition details: in transcutol, 313.2 K
Property name: solubility (mole fraction)

In [3]: df
Out[3]:
                item_smiles               property_name  assay_result
0  CC1=CC(=O)C(C(C)C)=CC1=O  solubility (mole fraction)        0.0927

====

Condition details: in ethyl acetate, 318.2 K
Property name: solubility (mole fraction)

In [3]: df
Out[3]:
                item_smiles  assay_result
0  CC1=CC(=O)C(C(C)C)=CC1=O        0.0485
